Taken from paper PMC6100075.

- System: B16-F10 melanoma cells
- Experiment Description: Total melanin content assay
- Assay type: cell-based, Mus musculus (mouse)
- Experimental Context: Mus musculus, B16-F10; 15 μM; 72 h; relative to control; read-out: % Melanin Content
Form field: activity at 15 µM (one value per entry).
In your response, the unit should come after the numeric value.

Examples with their reported activity at 15 µM follow.
>>> measured_result("COc1ccc(-c2coc3cc(O)ccc3c2=O)cc1")
"134%"
>>> measured_result("COc1ccc(C2COc3c(ccc(O)c3OC)C2)c(O)c1O [Compound 21, (3R,S)-3′-Hydroxy-8-methoxy vestitol]")
"97%"

Now for the compound whose activity at 15 µM we want.
For the compound `COc1ccc([C@H]2COc3cc(O)ccc3C2=O)c(OC)c1` , what activity at 15 µM is on record?
124%
